Ref: paper PMC6627331

target: S. aureus RnpA (Staphylococcus aureus, UniProt P0A0H5); construct: hexahistidine (His6) (N); made in house; host or cells: E. coli BL21 (DE3), plasmid pEXP5-nt; assay: RnpA-mediated in vitro spa mRNA degradation assay; type: biochemical; conditions: SAR figures, read-out: dIC50 = degradation IC50
Sequence (P0A0H5 whole entry): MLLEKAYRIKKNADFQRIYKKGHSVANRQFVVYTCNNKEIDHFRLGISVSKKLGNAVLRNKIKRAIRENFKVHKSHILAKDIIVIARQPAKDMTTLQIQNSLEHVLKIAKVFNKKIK
Kindly supply the reported IC50 values for the records listed here.
Please state the figure in µM; there is no need to write the unit.

[Q] Read the entry O=C(Nc1cccc(Cl)c1)c1c(NC(=O)C(F)(F)F)sc2c1CCCC2 and write its reported IC50.
[A] 35

[Q] Read the entry CCC1CCCCN1C(=O)Nc1cccc(Cl)c1 (stereo not drawn) and write its reported IC50.
[A] 350

[Q] Read the entry O=C(Nc1ccccc1)c1c(NC(=O)C(F)(F)F)sc2c1CCCCC2 and write its reported IC50.
[A] 63

[Q] Read the entry O=C(Nc1ccccc1Cl)c1c(NC(=O)C(F)(F)F)sc2c1CCCC2 and write its reported IC50.
[A] 62

[Q] Read the entry CCCN1CCN(C(=O)Nc2cc(Cl)cc(Cl)c2)CC1 and write its reported IC50.
[A] 450

[Q] Read the entry O=C(Nc1ccccc1Cl)c1c(NC(=O)C(F)(F)F)sc2c1CCCCC2 and write its reported IC50.
[A] 100
